Biological target: V-domain RAGE (vRAGE) (human, UniProt Q15109 23-121)
Sequence (Q15109 23-121): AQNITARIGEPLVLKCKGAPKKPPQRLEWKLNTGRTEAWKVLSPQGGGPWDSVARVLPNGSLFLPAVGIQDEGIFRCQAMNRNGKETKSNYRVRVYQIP
Assay: QCM (27 MHz); vRAGE immobilized; N = 3; 27-MHz QCM, vRAGE immobilized on sensor; buffer, salt, pH and temperature not stated (as described previously, ref 16)
measured metric: Kd
State the value, then name its unit.

Specify measured Kd for CCTGATATGGTGTCACCGCCGCCTTAGTATTGGTGTCTAC (XNA, phosphorothioate nucleotides at capital letters: ccTgATATggTgTcAccgccgccTTAgTATTggTgTcTAc (DNA)) [RAGE-aptamer] .
4.44 nM
